Test system: UO-31 renal
Test details: NCI-60 one-dose screen, 48 h (100 = growth as untreated, 0 = no growth, -100 = all killed)
Test parameters: 10 µM
The panel holds about 83,000 compounds, 20% with a hit somewhere; the sample as a whole holds those more often.
Measured property: growth (%)
Lab book: enter the figure in %, no units written.

O=C1CC[C@@H](C(=O)N[C@H]2CSSC[C@@H](C(=O)NCCc3ccccc3)NC(=O)[C@H](Cc3ccccc3)NC(=O)[C@@H]3CCCN3C(=O)[C@@H]3CCCN3C2=O)N1 = 99.1
COc1cc(-c2nc(-c3nnc(-c4cccnc4)o3)c3ccccn23)cc(OC)c1OC = 74.9

Query: Can you share its growth? I mean this molecule: Cc1cc(C)c(/C=C2\C(=O)Nc3ccc(NC(=O)CCCCCCC(=O)NO)cc32)[nH]1
Response: 66

Query: Which measured growth value corresponds to N#Cc1ncc(-c2cc(F)ccc2F)c(NC2CCCCCC2)n1 ?
Response: 81.5

###

Test system: KM12 colon
Test details: NCI-60 one-dose screen, 48 h
Test parameters: 10 µM
Compounds without any hit were thinned out: in the full panel of roughly 83,000, 20% have a hit. Active and inactive are the calls of the source. The calls were made as follows: active = growth percent below 10; inactive = the rest.
Answer with one of the outcomes given here: T for active, F for inactive

Examples from the recorded data:
Cc1ccc2c3c(cccc13)-c1ccccc1C2=O = F
N#CN1CC[C@H](C(=O)Nc2ncc(-c3ccncc3)s2)C1 = T
COc1ccc(C2=Cc3ccc(OC(C)=O)cc3OC2)cc1 = F
COCc1cc2c(cc1Br)OCO2 = F

Query: Short answer needed: outcome of this test for COc1c(C)c(C)c(OC)c2c1[nH]c(=O)c1c3cccnc3cn21 ?
Response: F

Query: recorded result category for COc1cc(C2CC(=O)Nc3c2c(C)nn3-c2nc3ccccc3[nH]2)cc(OC)c1O (stereo unspecified) in this test
Response: F

###

Tested on: NCI-H522 lung
Test details: NCI-60 one-dose screen, 48 h
Test parameters: 10 µM
Method: Growth inhibition of the NCI-H522 human Non-Small Cell Lung tumor cell line is measured as a screen for anti-cancer activity. Cells are grown in 96 well plates and exposed to the test compound for 48 hours. Compounds are tested at a single concentration, which is 10^-5 M for most compounds. The reported endpoint is percent growth (GI% or GIPRCNT), where numbers from 0 - 100% represent growth inhibition, and numbers from -100% - 0 represent cell death. […]
Compounds without any hit were thinned out: in the full panel of roughly 83,000, 20% have a hit. Active and inactive are the calls of the source. The calls were made as follows: active = growth percent below 10; inactive = the rest.
Mark one answer only. Choices: T = active, F = inactive

O=[N+]([O-])C1CC2C=CC1C2 (stereo unspecified) = F
CCN1CCN(c2ccc(Nc3ncnc4c3nnn4CCc3cc(OC)cc(OC)c3)cc2)CC1 = F

Query: Outcome logged for COc1ccc(-c2nnc(SCC(=O)c3ccccc3)o2)cc1 in this assay:
Response: F

Query: Answer briefly: the call reported for O=c1c2cccc3c(Nc4ccc(Br)cn4)ccc(c32)c2nc3ccccc3n12 in this assay.
Response: F

Query: Look up the recorded call for COc1ccc(-c2nsc3c2NC(=O)CC3c2cccc(Cl)c2)cc1 (stereo unspecified) in this test.
Response: T

Query: Look up the recorded call for Fc1cc(-c2ncc(-c3cc(F)c(F)c(F)c3)c(NC3CCCCCC3)n2)cc(F)c1F in this test.
Response: F

Query: Per the records of this test, what outcome belongs to CCCc1c(C)nc2scc(-c3ccc(Cl)cc3)n2c1=O ?
Response: F

Query: How was Cc1nc(N)sc1Sc1nc2ccc(Cl)cc2c(=O)n1-c1ccc(Oc2ccccc2)cc1 classified in this test?
Response: F

Query: Each molecule tested received a call. Report the one for Cc1cc(C(C)(C)CC(C)(C)C)ccc1OCCOCC[N+](C)(C)Cc1ccccc1 .
Response: T

Query: Hi, sorry to bother you, what did the test record for O=C1c2cc(Cl)ccc2-c2c(O)cc(Cl)cc21 ?
Response: F

Query: State the result this test recorded for Cc1ccccc1[P+](Cc1ccccc1)(c1ccccc1)c1ccccc1 .
Response: T

###

Test system: SK-MEL-28 melanoma
Test details: NCI-60 one-dose screen, 48 h (100 = growth as untreated, 0 = no growth, -100 = all killed)
Test parameters: 10 µM
About 83,000 compounds went through this panel and 20% of them were active in at least one assay; those are over-represented in the sample as a whole. Active and inactive are the calls of the source. How the source made its calls: active means growth percent below 10; inactive means the rest.
Measured property: growth

Take a look at these entries with their results.
Cc1cc(C#Cc2ccccc2)ccc1-n1c(/C=C/c2cc(O)ccc2O)nc2ccccc2c1=O = -45.3% (active)
O=C(Nc1cccc([N+](=O)[O-])c1)NN1CCCCCC1 = 112% (inactive)
NC1CCC(Nc2nc(NCc3ccc(-c4ccccc4O)nc3)c3ncn(C4CCCC4)c3n2)CC1 (configuration not stated) = -58.9% (active)
CCN(CC)c1ccc(/C=C/C2=[N+](C)c3ccccc3C2(C)C)c(C)c1 = 9.14% (active)
CC(=O)Oc1c(C)c(C)c2c(c1C)CCC(C)(CC(=O)OCCCCCCCCCCC[P+](c1ccccc1)(c1ccccc1)c1ccccc1)O2 (configuration not stated) = -86.9% (active)

Query: Consider the molecule shown here: CC(C)C[C@H](NC(=O)CCn1ccc2ccccc2c1=O)B(O)O What is its recorded growth?
Response: 36.9% (inactive)

Query: Please look up its growth: CN(C)Cc1cccs1
Response: 102% (inactive)

Query: Fill in the blank: the reported growth of COc1cc(C2C=C(c3ccc(Cl)cc3)N=C3SC(C)=CN32)cc(OC)c1OC (configuration not stated) is ____.
Response: 105% (inactive)

Query: Value lookup for growth; key = CC(C)/C(=N/O)c1ccccc1
Response: 113% (inactive)

Query: Please look up its growth: N#Cc1c(-c2ccccc2)nc(SCC(=O)N2CCOCC2)[nH]c1=O
Response: 114% (inactive)

Query: Sample CCCCCCCCCCN=C(c1ccc(N(C)C)cc1)c1ccc(N(C)C)cc1 — what was its growth?
Response: 59.7% (inactive)

###

Tested on: IGROV1 ovarian
Test details: NCI-60 one-dose screen, 48 h
Test parameters: 10 µM
Experimental: Growth inhibition of the IGROV1 human tumor cell line is measured as a screen for anti-cancer activity. Cells are grown in 96 well plates and exposed to the test compound for 48 hours. Compounds are tested at a single concentration, which is 10^-5 M for most compounds. The reported endpoint is percent growth (GI% or GIPRCNT), where numbers from 0 - 100% represent growth inhibition, and numbers from -100% - 0 represent cell death. For example, a value of 40 represents 60% growth inhibition. […]
About 83,000 compounds went through this panel and 20% of them were active in at least one assay; those are over-represented in the sample as a whole. Active and inactive are the calls of the source. Rule for the calls: active = growth percent below 10; inactive = the rest.
The reply should be one of these categories: active, inactive

Past entries and their recorded results:
N=C(N)c1ccc(-c2ccc(-c3cccs3)s2)nc1 = inactive
CCOC(=O)C(CCC1=NC(C)(C)CC(C)O1)C(=O)OCC (centres undefined) = inactive
CCOc1ccc2c(c1)CC[C@@H]1[C@@H]2CC[C@]2(C)[C@@H](O)[C@@H](O)C[C@@H]12 = inactive
O=C(Nc1ccc(CN2CCOCC2)cc1)c1ccc(-c2cc(Cl)ccc2Cl)o1 = inactive
CCOc1nc(-c2ccccc2)cc2c(O)c(C(=O)NCCCO)[nH]c(=O)c12 = inactive

Query: How did this test come out for O=C1/C(=C/c2ccc(O)cc2)Cc2ccc(Cl)cc21 ?
Response: inactive

Query: Recorded test call requested for O=CNc1c(Cl)cc2c(c1Cl)Cc1cc([N+](=O)[O-])ccc1-2
Response: inactive

Query: Call for entry CCOC(=O)c1c(C)n(-c2ccc(Cl)cc2)c2ccc(OC(=O)/C=C/c3ccccc3)cc12 :
Response: inactive

Query: Called result for COc1cccc2c1C(=O)c1c(O)c3c(c(O)c1C2=O)C[C@@](O)(C(=O)COC(=O)c1cccnc1)C[C@@H]3OC1CC(N)C(O)C(C)O1 (some centres undefined)
Response: active

###

Test system: SK-MEL-28 melanoma
Test details: NCI-60 one-dose screen, 48 h (100 = growth as untreated, 0 = no growth, -100 = all killed)
Test parameters: 10 µM
Compounds without any hit were thinned out: in the full panel of roughly 83,000, 20% have a hit.
Measured property: growth (%)
# value in %; strip the unit string

Reference set (9 entries):
CC(=O)[C@H]1CC[C@H]2[C@@H]3CC[C@@H]4CC=C(C=O)C[C@]4(C)[C@H]3CC[C@]12C = 93.9
CC(=O)c1ccc(NCn2nc(-c3ccc(Cl)cc3)oc2=S)cc1 = 95.5
Cc1ccc(C2C=C(c3ccc(Cl)cc3)N=C3SC=CN32)c(Br)c1 (stereo not given) = 105
CC(C)CCN(CCCNc1c2c(nc3cc(Cl)ccc13)CCCC2)CCC(C)C = 83.4
COc1ccc(-n2nnc3c(sc4ccccc43)c2=O)cc1 = 82.8
Cc1cc(C(C)(C)CC(C)(C)C)ccc1OCCOCC[N+](C)(C)Cc1ccccc1 = -92
COc1ccc(C2=NNC(c3sc(Cl)nc3Cl)C2)cc1 (stereo not given) = 98.9
CC1(C)CC(OCCCC[P+](c2ccccc2)(c2ccccc2)c2ccccc2)CC(C)(C)N1O = -55.8
O=C(NC1CCN(Cc2ccccc2)CC1)c1cc(-c2ccncc2)nc2ccc(Cl)cc12 = 46.5

Query molecule follows.
Query: Tell me the measured growth of CC1(C)Cc2c(cn(Cc3ccccc3)c2-c2ccccc2)-c2oncc21 , please.
Response: 112
